Assay notes: Acute toxicity by oral dosage to mouse
Experimental context: in vivo
Value type: LD50

>>> print(df.to_string())
                                   molecule  value_type     meas_value
0  N[C@H](C(=O)O)[C@H](O)c1ccc(O)c(O)c1 (relative stereo) [DL-threo-DOPS]        LD50  ≥ 10000 mg/kg
1  N[C@H](C(=O)O)[C@H](O)c1ccc(O)c(O)c1 [L-threo-DOPS]        LD50  ≥ 10000 mg/kg

* * *

# reported LD50; entries follow
Assay notes: Acute toxicity by oral dosage to rat
Experimental context: in vivo
Value type: LD50

In [3]: df
Out[3]:
                                   molecule  value_type     meas_value
0  N[C@H](C(=O)O)[C@H](O)c1ccc(O)c(O)c1 [L-threo-DOPS]        LD50  ≥ 10000 mg/kg
1  N[C@H](C(=O)O)[C@H](O)c1ccc(O)c(O)c1 (relative stereo) [DL-threo-DOPS]        LD50  ≥ 10000 mg/kg
